# Test system: eosinophil peroxidase
# measurement_protocol: Uterine eosinophil peroxidase (EPO) assay in ovariectomized rats (four day dosing)
# Type: in vivo, female Sprague Dawley rats
# Parameters: unit not given here
# run_parameters: 0.1 mg/kg, oral, daily for 4 days; OVX rats
Labelling field: enter class 1 if recorded Uterine EPO (Vmax) is less than 3. Enter class 0 if it equals or exceeds that cut-off.

Use the examples below as a reference point.
O=C(c1ccc(OCCN2CCCC2=O)cc1)c1c(-c2ccc(O)cc2)sc2cc(O)ccc12    class 0
O=C(c1ccc(OCCN2C(=O)CCC2=O)cc1)c1c(-c2ccc(O)cc2)sc2cc(O)ccc12    class 1
N#CCOc1ccc(C(=O)c2c(-c3ccc(O)cc3)sc3cc(O)ccc23)cc1    class 0
CN(C)C(=O)COc1ccc(C(=O)c2c(-c3ccc(O)cc3)sc3cc(O)ccc23)cc1    class 0
COc1ccc(-c2sc3cc(OC)ccc3c2C(=O)c2ccc(OCC(=O)N3CCCCC3)cc2)cc1    class 0

hey, is Uterine EPO (Vmax) for O=C(c1ccc(OCCN2CCCCC2=O)cc1)c1c(-c2ccc(O)cc2)sc2cc(O)ccc12 lower than 3 or not?
class 0

I wonder whether CC(=O)N(CCOc1ccc(C(=O)c2c(-c3ccc(O)cc3)sc3cc(O)ccc23)cc1)C1CCCCC1 has Uterine EPO (Vmax) below 3. Can you tell?
class 0

For CC(C#N)Oc1ccc(C(=O)c2c(-c3ccc(O)cc3)sc3cc(O)ccc23)cc1 (centres unmarked) , is the recorded Uterine EPO (Vmax) below the cut-off of 3?
class 1

I wonder whether O=C(c1ccc(OCCNC(=O)C2CCCCC2)cc1)c1c(-c2ccc(O)cc2)sc2cc(O)ccc12 has Uterine EPO (Vmax) below 3. Can you tell?
class 0

# TODO verify Uterine EPO (Vmax) < 3 strictly for this compound: CCCCN(C)C(=O)COc1ccc(C(=O)c2c(-c3ccc(O)cc3)sc3cc(O)ccc23)cc1
class 0

Bench note: check whether CC(C)(C)C(=O)N1CCC(Oc2ccc(C(=O)c3c(-c4ccc(O)cc4)sc4cc(O)ccc34)cc2)CC1 shows Uterine EPO (Vmax) below 3
class 1

Bench note: check whether CC(=O)NCCOc1ccc(C(=O)c2c(-c3ccc(O)cc3)sc3cc(O)ccc23)cc1 shows Uterine EPO (Vmax) below 3
class 1

* * *

# System: eosinophil peroxidase
# measurement_protocol: Uterine eosinophil peroxidase (EPO) assay in ovariectomized rats (four day dosing)
# Type: in vivo, female Sprague Dawley rats
# Set-up: unit not given here
# run_parameters: 0.1 mg/kg, oral, daily for 4 days; OVX rats
Catalogue of Uterine EPO (Vmax) readings, one per entry.

O=C(NCCOc1ccc(C(=O)c2c(-c3ccc(O)cc3)sc3cc(O)ccc23)cc1)NC1CCCCC1 [Compound 20]    3.0
O=C(c1ccc(OCC(=O)N2CCCCC2)cc1)c1c(-c2ccc(O)cc2)sc2cc(O)ccc12 [Compound 9]    2.8
CC(C)(C)C(=O)N1CCCCC1COc1ccc(C(=O)c2c(-c3ccc(O)cc3)sc3cc(O)ccc23)cc1 (centres unmarked) [Compound 22]    3.5
C#C[C@]1(O)CC[C@H]2[C@@H]3CCc4cc(O)ccc4[C@H]3CC[C@@]21C [ethynyl estradiol, 17α-Ethynyl estradiol, reference compound]    120.0

Next item in the queue.
Indicate its recorded Uterine EPO (Vmax); the molecule in question is O=C(NCCOc1ccc(C(=O)c2c(-c3ccc(O)cc3)sc3cc(O)ccc23)cc1)c1ccccc1 [Compound 18]
3.2
